From: PubChem BioAssay (NCI)

- Tested on: NCI-H460 lung
- assay notes: NCI tumour cell line growth inhibition, 48 h
*1 amine or outer side, *2 acyl side, *3 side chain or, on linkers, in order; H or OH if unused. Where a SMILES comes first, the peptide text is derived from it. Bridges are numbered along the chain shown (N, C = ends). Roman numbers before positions name the chains, in order. [ ]: non-standard residue; d: D form. Actinocin(9to1) = Cc1c2oc3c(C)ccc(C(=O)[*:1])c3nc-2c(C(=O)[*:2])c(N)c1=O; NMeV = CN[CH](C(=O)O)C(C)C; Sar = CNCC(=O)O
measured endpoint: TGI

compound | result value
C=C1CN=C(Nc2ccc(F)cc2F)S1 | > 100 µM

State recorded TGI for all listed compounds.
1. O=C1/C(=C/c2cccs2)N=C(c2ccccc2)N1c1nc2ccccc2s1
2. N#CC(C(=O)/C(=N/N)C(C#N)c1ccc(Cl)cc1)c1ccc(Cl)cc1 (configuration not stated)

1. > 100 µM
2. > 100 µM

State recorded TGI for all listed compounds.
1. O=C1CCC(Cc2ccc(Cl)cc2Cl)C(=O)N1 (configuration not stated)
2. C/C(=C\COP(=O)(O)OP(=O)(O)O)CC/C=C(\C)CNc1ccccc1
3. O=C1/C(=C/C=C/c2ccccc2)CCC1CNc1ccc(Br)cc1 (configuration not stated)
4. COc1ccc(C(=O)/C=C/c2ccc(OCCCOc3ccc(/C=C/C(=O)c4ccc(OC)c(OC)c4)cc3)cc2)cc1OC
5. COCCN(C(=O)c1ccccc1)C1CCC(=O)c2[nH]c3ccccc3c21 (configuration not stated)
6. N[C@@H](Cc1c[nH]c2ccccc12)C(=O)NC1CCN(C(=O)c2c[nH]c3ccccc23)CC1

["> 100 µM", "> 50 µM", "> 100 µM", "> 100 µM", "34.9 µM", "> 100 µM"]

State recorded TGI for all listed compounds.
1. O=C1NC(=S)N/C1=C\c1ccc(Sc2ccccc2C(=O)O)s1
2. Nc1ccc2c(SCCSc3c4ccccc4nc4cc(N)ccc34)c3ccccc3nc2c1
3. O=C(O)c1cc2ccccc2c(O)c1O
4. Cc1c2oc3c(C)ccc(C(=O)NC4C(=O)NC(Cc5ccc(O)cc5)C(=O)N5CCCC5C(=O)N(C)CC(=O)N(C)C(C(C)C)C(=O)OC4C)c3nc-2c(C(=O)NC2C(=O)NC(Cc3ccc(O)cc3)C(=O)N3CCCC3C(=O)N(C)CC(=O)N(C)C(C(C)C)C(=O)OC2C)c(N)c1=O (configuration not stated) (I: TYP[Sar][NMeV] / II: TYP[Sar][NMeV]; ester I:1-I:C, II:1-II:C; linker I:N-II:N via Actinocin(9to1); configuration not given here)
5. CN1CCCC(OC(=O)c2cc3cc(CCl)ccc3oc2=O)C1 (configuration not stated)
6. Oc1ccc(O)c(Sc2nnc(CCCCCCCCc3nnc(Sc4cc(O)ccc4O)o3)o2)c1
7. COC(=O)C1CC(C(=O)OC)c2nc3cc(C)ccc3nc21 (configuration not stated)

> 100 µM
> 100 µM
41.8 µM
> 100 µM
44.9 µM
> 100 µM
> 100 µM

Observed TGI, NCI-H460 lung, "C=C1[C@@H](C)[C@H]2[C@H](Cc3ccccc3)NC(=O)[C@]23OC(=O)/C=C/[C@H](O)CCC[C@@H](C)C/C=C/[C@H]3[C@@H]1O" : 57.8 µM

###

- System: HCT-15 colon
- assay notes: NCI tumour cell line growth inhibition, 48 h
Please respond with reported TGI for every item in the list.

Known results for molecules:
molecule | study target | TGI
CC(=O)Nc1ccc(/C=C/[N+](=O)[O-])cc1 | HCT-15 colon | > 19.6 µM
OCC1c2ccccc2-n2nc(-c3ccccc3)c(O)c21 (stereo unspecified) | HCT-15 colon | 29.2 µM
CC12CCC3C(CC=C4CC(O)CCC43C)C1C/C(=C\N1CCCC1)C2=O (stereo unspecified) | HCT-15 colon | > 100 µM
COc1ccc(C(=O)/C=C/c2ccc(OCCCOc3ccc(/C=C/C(=O)c4ccc(OC)c(OC)c4)cc3)cc2)cc1OC | HCT-15 colon | > 100 µM
Cc1ccc2c(c1)nc(C(=O)c1ccco1)c(C(F)(F)F)[n+]2[O-] | HCT-15 colon | > 100 µM

State recorded TGI for all listed molecules.
1. COc1ccc(-n2c(SCc3cc(OC)c(OC)c(OC)c3)nc3ccc(C)cc3c2=O)c(OC)c1
2. C=C1[C@@H](C)[C@H]2[C@H](Cc3ccccc3)NC(=O)[C@]23OC(=O)/C=C/[C@H](O)CCC[C@@H](C)C/C=C/[C@H]3[C@@H]1O
3. O=P1(N(CCCl)CCCl)NCCCO1 (stereo unspecified)
4. N#C[C@H]1C(=O)C(c2nc3ccccc3[nH]2)S[C@H]1c1ccccc1 (stereo partly specified)
5. COc1ccc(C=C2C(=O)OC(C)(C)OC2=O)cc1OC

["> 100 µM", "93.2 µM", "> 250 µM", "> 100 µM", "> 100 µM"]

###

- Test system: MDA-MB-435
Outcome field: choose from active, inactive

Please review the following examples before continuing.
compound | assigned class
O=c1cccc(C#CC#C[C@H]2O[C@@H]2CO)o1 | inactive
CC1=C(/C=C/C(C)=C\C=C\C(C)=C\C(=O)Nc2ccc3c(c2)OCO3)C(C)(C)CCC1 | inactive
N[C@@H](Cc1c[nH]c2ccccc12)C(=O)NC1CCN(C(=O)c2c[nH]c3ccccc23)CC1 | inactive
Oc1ccc(/C=N\Nc2ccccn2)c(O)c1 | inactive

Fill in: this test's call for CC(=O)O[C@H]1C(=O)[C@@]2(C)C(C(OC(=O)c3ccccc3)[C@]3(O)CC(OC(=O)[C@H](OC(=O)CCC(=O)O)C(NC(=O)c4ccccc4)c4ccccc4)C(C)=C1C3(C)C)C1(OC(C)=O)COC1C[C@@H]2OC(=O)CCC(=O)O (some centres undefined) is ___
active

Fill in: this test's call for "Nc1ccccc1C#C/C=C\C#Cc1ccccc1C(F)(F)F" is ___
active

Fill in: this test's call for CCOP(=O)(OCC)C(NC(c1ccccc1)c1ccccc1)c1ccccc1 (centres undefined) is ___
inactive

Fill in: this test's call for "CCN(CC)c1ccc(/C=C\c2cc(C)c3cc(C)ccc3n2)cc1" is ___
inactive

Fill in: this test's call for "C1CC[N-]CC1.C1CC[N-]CC1.C1CC[N-]CC1.C1CC[N-]CC1.[Cl][Rh][Cl]" is ___
inactive

###

Please respond with reported TGI for every item in the list.
- System: A549 NSCLC
- assay notes: NCI tumour cell line growth inhibition, 48 h
Answers are plain numbers, in µM.

compound | study target | scale unit | TGI
COC(CC1(CCNc2ccccc2)C(=O)N(COCC[Si](C)(C)C)c2ccccc21)OC (stereo not drawn) | A549 NSCLC | µM | 34.3

Continue with the compound presented below.
Just so you know, measured TGI for "CCOC(=O)COC1=Nc2cc(OC)c(OC)c3nc(Cl)cc(c23)C1=O" came out at 18.3

###

- Tested on: DMS 273 small cell lung
- assay notes: NCI tumour cell line growth inhibition, 48 h
measured endpoint: TGI

Known results for compounds:
compound | TGI
CC(C)C(=O)/C=C/c1ccccc1 | > 100 µM
O=S(=O)([O-])c1cccc2cccc(N=Cc3ccccc3[O-])c12.O=S(=O)([O-])c1cccc2cccc(N=Cc3ccccc3[O-])c12.[O]=[U]=[O] | > 100 µM

State recorded TGI for all listed compounds.
1. COc1ccccc1NC(=O)CSC(N)=O
2. N#CC(NNC(=O)c1ccccc1O)c1ccc(O)cc1 (configuration not stated)
3. O=C(NCCNCCO)N/N=C/c1ccccc1
4. CCCCCCCCCCC/C(=N/O)c1ccc(O)c2ncccc12
5. CCOC(=O)CC(=O)Sc1ccccc1

["> 100 µM", "> 100 µM", "> 100 µM", "4.79 µM", "46 µM"]

###

- System: HCC-2998 colon
- assay notes: NCI tumour cell line growth inhibition, 48 h
measured endpoint: TGI

Known results for compounds:
compound | TGI
CCCCCCCCCCCCCCCCCC(=O)OCC(CN(C)CCN(C)C)OC(=O)CCCCCCCCCCCCCCCCC (stereo not drawn) | > 100 µM
CCCCN(CCCC)C1=Nc2ccccc2-n2c(nnc2C(=O)OCC)C1 | > 100 µM
C#Cc1cccc(Nc2ncnc3cc(OCCOC)c(OCCOC)cc23)c1 | > 100 µM
N[C@@H](Cc1c[nH]c2ccccc12)C(=O)NC1CCN(C(=O)c2c[nH]c3ccccc23)CC1 | > 100 µM
NC(=O)CC[C@H]1C(=O)N=C(N)N1C(=O)OCc1ccccc1 | > 100 µM
OCc1cn(Cc2cccc(Cl)c2)c2ccccc12 | 28.3 µM
CC(=O)Nc1ccc(C(=O)N2N=C(C)/C(=C/c3ccccc3O)C2=O)cc1 | > 100 µM
O=C1Sc2cc3ccccc3cc2C(=O)Sc2cc3ccccc3cc21 | 58.7 µM
CN1C(=O)C(CCO)(C(C)(C)C)c2ccccc21 (stereo not drawn) | > 100 µM
Cc1cn(C2CC(SCCO)C(CO)O2)c(=O)[nH]c1=O (stereo not drawn) | > 100 µM

State recorded TGI for all listed compounds.
1. OCCCCC#Cc1ccccc1C#Cc1ccccc1
2. COc1ccccc1-[n+]1cc(-c2ccc(-c3ccccc3)cc2)n2c1CCCCC2
3. OC1(C(O)(c2ccc(-c3ccccc3)cc2)c2ccc(-c3ccccc3)cc2)CCCCC1
4. O=C1/C(=C(/Br)I)c2ccccc2-c2ccccc21

1. 43.6 µM
2. 12.6 µM
3. > 100 µM
4. 11.4 µM

State recorded TGI for all listed compounds.
1. CCCOC1OC(CS(=O)(=O)O)C(OC(C)=O)C(OC(C)=O)C1OC(C)=O (stereo not drawn)
2. Cc1ccc(S(=O)(=O)CC2CCCn3c2c(C#N)c2ccccc23)cc1 (stereo not drawn)

["> 100 µM", "> 100 µM"]
